# Tested on: Killifish (Oryzias latipes)
# measurement.description: Acute toxicity of unsaturated higher fatty acids to killifish
# Type: in vivo
# assay.setup: adult killifish, 48 hr, 25° C.
Structures can show the parent of a compound that is named as a salt.
parameter.measured: LC100

CCC=CCC=CCC=CCC=CCC=CCCCC(=O)O [5,8, 11, 14, 17-eicosapentaenoic acid] :: > 30 ppm
CCC=CCC=CCC=CCC=CCC=CCCCC(=O)O [Na salt of 5, 8, 11, 14, 17-eicosapentaenoic acid] :: > 50 ppm
CC/C=C\C/C=C\C/C=C\C/C=C\CCCCC(=O)O [OTA, 6Z, 9Z, 12Z, 15Z-octadecatetraenoic acid] :: > 25 ppm

Would you kindly share the measured LC100 for CCCCC/C=C\C/C=C\C/C=C\CCCCC(=O)O [γ-linolenic acid] ?
> 50 ppm

# iterate: CC/C=C\C/C=C\C/C=C\CCCCCCCC(=O)[O-].[Na+] [sodium linolenate]
> 150 ppm

---

# System: Killifish (Oryzias latipes)
# measurement.description: Acute toxicity of unsaturated higher fatty acids to killifish
# Type: in vivo
# assay.setup: adult killifish, 48 hr, 25° C.
Where a name gives a salt, the structure may show the parent alone.
molecules and their reported Maximum no effect concentration

Look over these answered cases.
CC/C=C\C/C=C\C/C=C\C/C=C\CCCCC(=O)O [OTA, 6Z, 9Z, 12Z, 15Z-octadecatetraenoic acid] :: < 20 ppm
CCCCC/C=C\C/C=C\C/C=C\CCCCC(=O)O :: < 40 ppm
CCC=CCC=CCC=CCC=CCC=CCCCC(=O)O [Na salt of 5, 8, 11, 14, 17-eicosapentaenoic acid] :: < 30 ppm
CC/C=C\C/C=C\C/C=C\CCCCCCCC(=O)[O-].[Na+] [sodium linolenate] :: < 100 ppm

Consider the additional molecule presented here.
Which Maximum no effect concentration is reported for this molecule? CCC=CCC=CCC=CCC=CCC=CCCCC(=O)O [5,8, 11, 14, 17-eicosapentaenoic acid]
< 25 ppm
